tested on: IGROV1 ovarian; assay: NCI tumour cell line growth inhibition, 48 h
Kind request: treat 8 µM as inclusive, so TGI at 8 µM or higher is satisfied, anything lower is not satisfied.

>  <molecule>
COc1cc(OC(=O)c2c(O)cc(O)c(O)c2C)cc(C)c1C(=O)Oc1cc(C)c(C(=O)O)c(O)c1

>  <targetEntity>
IGROV1 ovarian

>  <categoryLabel>
satisfied

$$$$
>  <molecule>
Cc1ccc(C(=NN=C(N)N)c2ccc(C)cc2)cc1

>  <targetEntity>
IGROV1 ovarian

>  <categoryLabel>
not satisfied

$$$$

Identify whether the reported TGI of the following molecule is 8 µM or greater: `CCOC(=O)/C(C#N)=C/Nc1c(C)n(C)n(-c2ccccc2)c1=O`
satisfied

Decide: TGI of `O=C(Nc1ccc(Cl)cc1)c1cc(-c2ccc(F)cc2)c2sc(=O)[nH]c2n1` >= 8 µM?
not satisfied

Identify whether the reported TGI of the following molecule is 8 µM or greater: CC(=O)OC1Oc2ccccc2-c2oc(=O)c(-c3cc4ccc(N(C)C)cc4oc3=O)cc21 (stereo not given)
satisfied

Item `CCOC(=O)c1cc(/C(=N\O)c2cc(OC)c(OC)c(OC)c2)n2cc(C)cc(C)c12` with TGI of 8 µM or above?
satisfied

Hello, I need to know if `N.N.N.N.N.O=C([O-])c1nn[n-]n1.[Cl-].[Co+3]` has measured TGI not below 8 µM. Thanks!
satisfied

Hello, I need to know if COc1ccc(CNc2ccn(C3OC(CO)C(O)C3O)c(=O)n2)cc1 (stereo not given) has measured TGI not below 8 µM. Thanks!
satisfied

Does TGI meet or surpass 8 µM for COc1ccccc1C[C@@H]1OC2(C=CC(=O)CC2SC(=O)c2ccccc2)O[C@H]1Cc1ccccc1OC (stereo not given in full) ?
not satisfied

Exam item: decide whether the reported TGI for NCC(Cl)C(O)c1cnc(N)[nH]1 (stereo not given) is at least 8 µM.
not satisfied

###

tested on: ACHN renal; assay: NCI tumour cell line growth inhibition, 48 h; in the data active = GI50 below about 0.43 µM; inactive = the rest
Outcomes you can answer with include only these: active, inactive

In this assay, the call recorded for CCN(CC)CCCC(C)Nc1c(C)cnc2cc(Cl)c(C)cc12 (stereo not given) was what?
inactive

Assay result, entry `Clc1nc(Cl)c2ncn(Cc3cccc(COc4cccc(OCc5cccc(Cn6cnc7c(Cl)nc(Cl)nc76)c5)c4)c3)c2n1` — outcome?
inactive

Called result for `COc1ccc2c(c1)C(=O)c1c-2n(CCCn2ccnc2)c(=O)c2ccccc12`
active

What did this assay record as the result for CC(=O)OC1Oc2ccccc2-c2oc(=O)c(-c3cc4ccc(N(C)C)cc4oc3=O)cc21 (stereo not given) ?
inactive

Assay result, entry `COc1cc(OC)c(/C=C/C(=O)c2c(OC)cccc2OC)c(OC)c1` — outcome?
inactive

###

test system: PC-3 prostate; assay: NCI tumour cell line growth inhibition, 48 h
reportedEndpoint: TGI (µM)
One number for each entry, in µM.

>  <compound>
CN1CCC23c4c5ccc(Oc6nnnn6-c6ccccc6)c4OC2c2[nH]c4ccccc4c2CC3(O)C1C5 (centres undefined)

>  <unitLabel>
µM

>  <TGI>
15

$$$$

Alright, here's another compound for you.
Supply reported TGI belonging to this compound: CCCCCCCC(CC(=O)NC(CO)C(=O)NC(CO)CC(C)C)OC(=O)CC(CCCCCCC)OC(=O)CC(CCCCCCC)OC1OC(C)C(O)C(OC2OC(C)C(O)C(OC(C)=O)C2O)C1O (centres undefined)
20.6
